Data origin: PubChem BioAssay (NCATS)

# TESTED ON: Single-stranded DNA cytosine deaminase (Homo sapiens) (UniProt Q9GZX7)
# Sequence (Q9GZX7 whole entry, looked up): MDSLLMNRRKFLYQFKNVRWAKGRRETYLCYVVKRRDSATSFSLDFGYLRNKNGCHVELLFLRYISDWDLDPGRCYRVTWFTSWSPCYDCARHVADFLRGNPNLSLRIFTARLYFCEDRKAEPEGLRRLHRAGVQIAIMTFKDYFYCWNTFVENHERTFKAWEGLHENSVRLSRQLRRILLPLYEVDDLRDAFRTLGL
# EXPERIMENT: Validation qHTS assay for inhibitors of Activation Induced Cytidine Deaminase (AID): AID signal (AID 1347429)
# SETTINGS: Recombinant AID, FRET ssDNA deamination with UDG, fluorescence; series mostly up to 115 µM
# Text: Assay Provider (PI) Patricia Gearhart Ph.D. National Institute on Aging National Institute of Health (NIH), Bethesda, MD Assay Provider (PI) Rahul Kohli Ph.D. Perelman School of Medicine University of Pennsylvania, Philadelphia, PA Activation-Induced Deaminase (AID) is a cytosine deaminase which converts cytosine into uracil within stretches of ssDNA. […] This screen has two signal output, Read 1 evaluates the AID inhibition response. […]
The source made the active and inactive calls. Calls follow the shape of the dose curve; as a rule, active = well fitted inhibition curve with a large enough effect; inconclusive = small, poorly fitted or top-dose-only effect; inactive = no such curve, though single readings can be large or run the other way.
EXPERIMENTAL ENDPOINT: outcome

MOLECULE: C#CC(N)CCC(=O)O (stereo unspecified)
TESTED ON: Single-stranded DNA cytosine deaminase (Homo sapiens) (UniProt Q9GZX7)
outcome: inactive
//
MOLECULE: Cn1c(=O)c2c(nc(/C=C/c3cccc(Cl)c3)n2C)n(C)c1=O
TESTED ON: Single-stranded DNA cytosine deaminase (Homo sapiens) (UniProt Q9GZX7)
outcome: inactive
//
MOLECULE: CC(O)C(O)[C@H]1CNc2nc(N)[nH]c(=O)c2N1 (stereo partly specified)
TESTED ON: Single-stranded DNA cytosine deaminase (Homo sapiens) (UniProt Q9GZX7)
outcome: inactive
//
MOLECULE: CCCCOc1cc(CC2CNC(=O)N2)ccc1OC (stereo unspecified)
TESTED ON: Single-stranded DNA cytosine deaminase (Homo sapiens) (UniProt Q9GZX7)
outcome: inactive
//
MOLECULE: OC[C@H]1O[C@@H](n2cnc3cncnc32)[C@H](O)[C@@H]1O
TESTED ON: Single-stranded DNA cytosine deaminase (Homo sapiens) (UniProt Q9GZX7)
outcome: inactive

// sample C=CCN1CCc2c(cc(O)c(O)c2Cl)C(c2ccccc2)C1 (stereo unspecified) , its outcome was inactive
